# experiment-summary: Solubility in Milli-Q water, examined with naked eye
# Type: physicochemical
# measurement-parameters: thermodynamic from solid; arbitrary amount in 1 mL Milli-Q water, room temperature, clear solution by naked eye; not the maximum solubility; read-out: Solubility in H2O
observation-type: solubility (µg/mL)
Numbers only, in µg/mL.

> print(dat)
                               query.smiles  observation.type  reported.measurement
1  Cc1ccc(NC(=O)[C@H]2CCCN(C(=O)c3c(C)cccc3F)[C@H]2c2ccc(N(C(=O)OCOC(=O)/C=C/C(=O)O)C3CCCC3)cc2)cc1C(F)(F)F        solubility                  1000

What measured solubility goes with Cc1ccc(NC(=O)[C@H]2CCCN(C(=O)c3c(C)cccc3F)[C@H]2c2ccc(N(C3CCCC3)P(=O)(O)N[C@@H](Cc3c[nH]cn3)C(=O)O)cc2)cc1C(F)(F)F ?
5000
